System: KB
MEASUREMENT NOTES: Selectivity for human KB-VCR cells to human KB cells
Type: functional

COMPOUND: C=Cc1c(C)c2cc3nc(c4c5[nH]c(cc6nc(cc1[nH]2)C(C)=C6CC)c(C)c5C(=O)[C@@H]4C(=O)OC)[C@@H](CCC(=O)O)[C@@H]3C [PHEOPHORBIDE A]
LIMIT QUALIFIER: =
fold change (FC): 0.6

COMPOUND: C=Cc1c(C)c2cc3nc(c4c5[nH]c(cc6nc(cc1[nH]2)C(C)=C6CC)c(C)c5C(=O)[C@]4(O)C(=O)OC)[C@@H](CCC(=O)OC)[C@@H]3C
LIMIT QUALIFIER: >
fold change (FC): 57

COMPOUND: C=Cc1c(C)c2cc3nc(c(C(=O)C(=O)OC)c4[nH]c(cc5nc(cc1[nH]2)C(C)=C5CC)c(C)c4C(=O)OC)[C@@H](CCC(=O)O)[C@@H]3C
LIMIT QUALIFIER: =
fold change (FC): 0.5

COMPOUND: COc1cc([C@@H]2c3cc4c(cc3[C@@H](O[C@@H]3O[C@@H]5CO[C@@H](C)O[C@H]5[C@H](O)[C@H]3O)[C@H]3COC(=O)[C@H]23)OCO4)cc(OC)c1O [ETOPOSIDE]
LIMIT QUALIFIER: =
fold change (FC): 153

COMPOUND: CC(=O)O[C@H]1C(=O)[C@@]2(C)[C@H]([C@H](OC(=O)c3ccccc3)[C@]3(O)C[C@H](OC(=O)[C@H](O)[C@@H](NC(=O)c4ccccc4)c4ccccc4)C(C)=C1C3(C)C)[C@]1(OC(C)=O)CO[C@@H]1C[C@@H]2O
LIMIT QUALIFIER: =
fold change (FC): 15

Where do these numbers come from? They come from ChEMBL document CHEMBL1155723.
